Test: Determination of release efficiency by UPLC-MS after X-ray irradiation
Assay type: physicochemical
Conditions: 10 μM in pure water, deoxygenated, 60 Gy X-ray (4 Gy/min, 15 min); released divalent platinum drug by UPLC-MS
Description: 2.7 Determination of Release Efficiency by UPLC-MS Corresponding tetravalent platinum complexes (compounds 1-66) were dissolved in DMSO to obtain tetravalent platinum stock solutions (10 mM), and then diluted to 10 μM with pure water. After deoxygenation, the solution was subjected to 60 Gy X-ray irradiation (4 Gy/min, 15 min). The reaction crude product was analyzed by UPLC-MS, and the released product was determined to be the corresponding divalent platinum drug by UPLC-MS. […]
ENDPOINT NAME: Release efficiency (%)
Quick note: give the figure in %, leave out the unit.

Looking for the measured Release efficiency of CC(=O)[O][Pt]([NH2])([NH2])([Cl])([Cl])[O]C(=O)CCCc1ccc(I)cc1 , can you help? 85.7

Can you check CC(=O)[O][Pt]([NH2])([NH2])([Cl])([Cl])[O]C(=O)CCCCCN1C(=O)C=CC1=O next? 80.3

Can you check CCCCCCCCCCCCCCCCCCNC(=O)[O][Pt]([NH2])([NH2])([Cl])([Cl])[O]C(=O)CN(C)C next? 83.7

Can you check CCCCCCCCCCCCCCCCNC(=O)[O][Pt]([NH2])([NH2])([Cl])([Cl])[O]C(=O)CN(C)C next? 78.5

---

Experiment: Determination of release efficiency by UPLC-MS after X-ray irradiation
Format: physicochemical
Settings: 10 μM in pure water, deoxygenated, 60 Gy X-ray (4 Gy/min, 15 min); released divalent platinum drug by UPLC-MS
ENDPOINT NAME: Release efficiency

Reference set, count: 5
• CCCCCCCCCCCCCCCCCCNC(=O)[O][Pt]([NH2])([NH2])([Cl])([Cl])[O]C(C)=O = 73.9%
• CN(C)CC(=O)[O][Pt]1([O]C(=O)CCCCCN2C(=O)C=CC2=O)[O]C(=O)C2(CCC2)C(=O)[O]1.N.N = 68.9%
• CCCCCCCCCCCCCCCCNC(=O)[O][Pt]([NH2])([NH2])([Cl])([Cl])[O]C(C)=O = 79.5%
• CCCCCCCCCCCCCCCCCCNC(=O)[O][Pt]1([O]C(=O)CCC(=O)O)[O]C(=O)C(=O)[O]1.N[C@@H]1CCCC[C@H]1N = 76.3%
• CC(=O)[O][Pt]([NH2])([NH2])([Cl])([Cl])[O]C(=O)CCC(=O)O = 75.5%

Looking for the measured Release efficiency of CCCCCCCCCCCCCCCC(=O)[O][Pt]1([O]C(=O)CCC(=O)O)[O]C(=O)C(=O)[O]1.N[C@@H]1CCCC[C@H]1N , can you help? 81.3%

Can you check CCCCCCCCCCCCCCCCNC(=O)[O][Pt]1([O]C(=O)CCC(=O)O)[O]C(=O)C(=O)[O]1.N[C@@H]1CCCC[C@H]1N next? 80.2%

---

Experiment: Determination of release efficiency by UPLC-MS after X-ray irradiation
Assay type: physicochemical
Conditions: 10 μM in pure water, deoxygenated, 60 Gy X-ray (4 Gy/min, 15 min); released divalent platinum drug by UPLC-MS
The compounds listed here are annotated with their Release efficiency.
Quick note: give the figure in %, leave out the unit.

Reference set, count: 10
- CN(C)CC(=O)[O][Pt]1([O]C(=O)CCCc2ccc(I)cc2)[O]C(=O)C2(CCC2)C(=O)[O]1.N.N: 71.0
- CCCCCCCCCCCCCCCC(=O)[O][Pt]1([O]C(=O)CN(C)C)[O]C(=O)C(=O)[O]1.N[C@@H]1CCCC[C@H]1N: 74.6
- N.N.O=C(O)CCC(=O)[O][Pt]1([O]C(=O)CCC(=O)O)[O]C(=O)C2(CCC2)C(=O)[O]1: 65.9
- CN(C)CC(=O)[O][Pt]1([O]C(=O)CCCCCN2C(=O)C=CC2=O)[O]C(=O)C(=O)[O]1.N[C@@H]1CCCC[C@H]1N: 74.5
- [NH2][Pt]([NH2])([Cl])([Cl])([O]C(=O)CCCc1ccc(I)cc1)[O]C(=O)CCC(=O)O: 76.7
- CCCCCCCCCCCCCCCCCCNC(=O)[O][Pt]([NH2])([NH2])([Cl])([Cl])[O]C(=O)CCC(=O)O: 82.7
- CCCCCCCCCCCCCCCCCCNC(=O)[O][Pt]1([O]C(=O)CCC(=O)O)[O]C(=O)C2(CCC2)C(=O)[O]1.N.N: 73.5
- CCCCCCCCCCCCCCCCCC(=O)[O][Pt]1([O]C(=O)CCC(=O)O)[O]C(=O)C(=O)[O]1.N[C@@H]1CCCC[C@H]1N: 82.0
- N.N.O=C(O)CCC(=O)[O][Pt]1([O]C(=O)CCCc2ccc(I)cc2)[O]C(=O)C2(CCC2)C(=O)[O]1: 64.6
- CCCCCCCCCCCCCCCCCC(=O)[O][Pt]1([O]C(=O)CN(C)C)[O]C(=O)C(=O)[O]1.N[C@@H]1CCCC[C@H]1N: 77.5

Looking for the measured Release efficiency of CCCCCCCCCCCCCCCCCCNC(=O)[O][Pt]1([O]C(=O)CN(C)C)[O]C(=O)C2(CCC2)C(=O)[O]1.N.N , can you help? 66.3

Can you check [NH2][Pt]([NH2])([Cl])([Cl])([O]C(=O)CCCCCN1C(=O)C=CC1=O)[O]C(=O)CCC(=O)O next? 73.9

Can you check CC(=O)[O][Pt]([NH2])([NH2])([Cl])([Cl])[O]C(C)=O next? 83.2

Can you check CCCCCCCCCCCCCCCCNC(=O)[O][Pt]1([NH2])([NH2])([O]C(C)=O)[O]C(=O)C2(CCC2)C(=O)[O]1 next? 69.4

Can you check CC(=O)[O][Pt]1([O]C(=O)CN(C)C)[O]C(=O)C(=O)[O]1.N[C@@H]1CCCC[C@H]1N next? 81.3

Can you check CN(C)CC(=O)[O][Pt]([NH2])([NH2])([Cl])([Cl])[O]C(=O)CCCCCN1C(=O)C=CC1=O next? 73.5

Can you check CCCCCCCCCCCCCCCCCCNC(=O)[O][Pt]1([O]C(=O)CN(C)C)[O]C(=O)C(=O)[O]1.N[C@@H]1CCCC[C@H]1N next? 82.2

Can you check CCCCCCCCCCCCCCCCNC(=O)[O][Pt]([NH2])([NH2])([Cl])([Cl])[O]C(=O)CCC(=O)O next? 77.4

Can you check N.N.O=C(O)CCC(=O)[O][Pt]1([O]C(=O)CCCCCN2C(=O)C=CC2=O)[O]C(=O)C2(CCC2)C(=O)[O]1 next? 67.7

Can you check CCCCCCCCCCCCCCCCNC(=O)[O][Pt]1([O]C(=O)CN(C)C)[O]C(=O)C(=O)[O]1.N[C@@H]1CCCC[C@H]1N next? 75.7

---

The compounds listed here are annotated with their Release efficiency.
Assay: Determination of release efficiency by UPLC-MS after X-ray irradiation
Format: physicochemical
Details: 10 μM in pure water, deoxygenated, 60 Gy X-ray (4 Gy/min, 15 min); released divalent platinum drug by UPLC-MS
Quick note: give the figure in %, leave out the unit.

Reference set, count: 3
- CN(C)CC(=O)[O][Pt]1([O]C(=O)CCCc2ccc(I)cc2)[O]C(=O)C(=O)[O]1.N[C@@H]1CCCC[C@H]1N: 73.7
- N[C@@H]1CCCC[C@H]1N.O=C(O)CCC(=O)[O][Pt]1([O]C(=O)CCC(=O)O)[O]C(=O)C(=O)[O]1: 76.7
- [NH2][Pt]([NH2])([Cl])([Cl])([O]C(=O)CCC(=O)O)[O]C(=O)CCC(=O)O: 75.6

Looking for the measured Release efficiency of CC(=O)[O][Pt]([NH2])([NH2])([Cl])([Cl])[O]C(=O)CN(C)C , can you help? 71.9

Can you check N[C@@H]1CCCC[C@H]1N.O=C(O)CCC(=O)[O][Pt]1([O]C(=O)CCCCCN2C(=O)C=CC2=O)[O]C(=O)C(=O)[O]1 next? 81.9

Can you check N[C@@H]1CCCC[C@H]1N.O=C(O)CCC(=O)[O][Pt]1([O]C(=O)CCCc2ccc(I)cc2)[O]C(=O)C(=O)[O]1 next? 75.3

Can you check CN(C)CC(=O)[O][Pt]([NH2])([NH2])([Cl])([Cl])[O]C(=O)CCCc1ccc(I)cc1 next? 79.6
